tested on: Human immunodeficiency virus 1; assay: Antiviral activity against Human immunodeficiency virus type-1
assay.readout: EC50
# output: numeric value plus its unit

compound Cc1cn([C@H]2C[C@H](N=[N+]=[N-])[C@@H](CO)O2)c(=O)[nH]c1=O [ZIDOVUDINE] , EC50 observed: 4.1 nM

* * *

system: Human alphaherpesvirus 1; assay: Antiviral activity against Herpes simplex virus type-1 (HSV-1).; assay type: functional, organism-based
assay.readout: EC50

compound `C#C[C@]1(CO)O[C@@H](n2ccc(N)nc2=O)C[C@@H]1O` , EC50 observed: 200 µM

compound `CC[C@]1(CO)O[C@@H](n2ccc(N)nc2=O)C[C@@H]1O` , EC50 observed: > 350 µM

compound `Nc1ccn([C@H]2C[C@H](O)[C@@](/C=C/Cl)(CO)O2)c(=O)n1` , EC50 observed: > 350 µM

compound `N#C[C@]1(CO)O[C@@H](n2ccc(N)nc2=O)C[C@@H]1O` , EC50 observed: 3.6 µM

compound `Nc1nc2c(ncn2COCCO)c(=O)[nH]1` , EC50 observed: 0.36 µM

compound `C[C@]1(CO)O[C@@H](n2ccc(N)nc2=O)C[C@@H]1O` , EC50 observed: 3.1 µM

compound `C=C[C@]1(CO)O[C@@H](n2ccc(N)nc2=O)C[C@@H]1O` , EC50 observed: > 350 µM
